meta.source: paper PMC9916616

Test system: Toxoplasma gondii RH-GFP tachyzoites
Experiment: In vitro anti-Tg assay (RH-GFP tachyzoite proliferation in Hs27 cells)
Type: cell-based
Details: CC30 in Hs27 / IC50Tg
ENDPOINT_LABEL: SI (selectivity index, CC30/IC50Tg)

Output SI (selectivity index, CC30/IC50Tg) of NC(=S)N/N=C/c1ccc(OC(=O)CC2SC(=O)NC2=O)c(Cl)c1 (centres unmarked)
>110.67

// Input: O=C(CC1SC(=O)NC1=O)Oc1ccc(/C=N/NC(=O)c2ccncc2)cc1 (centres unmarked) . Output its SI (selectivity index, CC30/IC50Tg) only.
>118.93

Using the record for O=C1C(O)=C([C@H]2CC[C@H](c3ccc(Cl)cc3)CC2)C(=O)c2ccccc21 [ATO, atovaquone, reference compound] , state its measured SI (selectivity index, CC30/IC50Tg).
227.55

Report measured SI (selectivity index, CC30/IC50Tg); entry is O=C(CC1SC(=O)NC1=O)Oc1ccc(/C=N/NC(=O)c2ccncc2)cc1Br (centres unmarked)
>43.81

State its SI (selectivity index, CC30/IC50Tg) for this compound: COc1cc(/C=N/NC(=O)c2ccncc2)ccc1OC(=O)CC1SC(=O)NC1=O (centres unmarked)
>48.35

Read off the recorded SI (selectivity index, CC30/IC50Tg) for NC(=S)N/N=C/c1ccc(OC(=O)/C=C2\SC(=O)NC2=O)cc1
58.71

Answer with the recorded SI (selectivity index, CC30/IC50Tg) for the compound listed here: CCOc1cc(/C=N/NC(=O)c2ccncc2)ccc1OC(=O)CC1SC(=O)NC1=O (centres unmarked)
16.77

// fetch SI (selectivity index, CC30/IC50Tg) given entry O=C(/C=C1\SC(=O)NC1=O)Oc1cccc(/C=N/NC(=O)c2ccncc2)c1
9.92
